Data provenance is paper PMC7677311.

TARGET_SYSTEM: UIS3 (PfUIS3) (Plasmodium falciparum)
Construct: recombinant His-mycUIS3, His tag cleaved; with LC3
ASSAY_SUMMARY: ITC, C4 ([…]) titrated into a saturated solution of UIS3 with LC3, one-site model
pKd: −log10 of the molar value.
MEASUREMENT_LABEL: pKd

MOLECULE	TARGET_SYSTEM	REPORTED
N#Cc1ccc(C(=O)N2CCN(Cc3ccc(-c4noc(-c5cccc(C(F)(F)F)c5)n4)cc3)CC2)cc1 [C4]	UIS3 (PfUIS3) (Plasmodium falciparum)	6.62
